Assay: Plasma pharmacokinetics in tumor-bearing mice
Details: nude, mouse, in vivo, iv, 600 ug/kg
Method: The TP concentrations in blood, heart, liver, spleen, lung, kidney, and tumor tissues were also quantified over time. […] The preparations were injected intravenously at drug-equivalent doses of 600 μg/kg TP. […] The TP concentration in plasma and tissue homogenate was analyzed with UHPLC-MS/MS. TP concentrations in cells, plasma, primary organs, and tumors were analyzed using UHPLC-MS/MS (Thermo Fisher Scientific, CA, USA). […]
recorded metric: MRT

// query Look up MRT for this molecule: CC(C)[C@]12O[C@H]1[C@@H]1O[C@]13[C@]1(O[C@H]1C[C@H]1C4=C(CC[C@@]13C)C(=O)OC4)[C@@H]2O [TP, triptolide]
// result 3.6 min
